biological target: recombinant human α1D receptor (Homo sapiens, UniProt P25100); construct: expressed in transfected cells; host or cells: HEK293; experiment: Adrenergic α1D selectivity binding assay ([3H]-prazosin); conditions: inhibition of [3H]-prazosin (0.3 nM) binding, HEK293 membranes; read-out: α1 bind pIC50 (converted)
Sequence (P25100 whole entry): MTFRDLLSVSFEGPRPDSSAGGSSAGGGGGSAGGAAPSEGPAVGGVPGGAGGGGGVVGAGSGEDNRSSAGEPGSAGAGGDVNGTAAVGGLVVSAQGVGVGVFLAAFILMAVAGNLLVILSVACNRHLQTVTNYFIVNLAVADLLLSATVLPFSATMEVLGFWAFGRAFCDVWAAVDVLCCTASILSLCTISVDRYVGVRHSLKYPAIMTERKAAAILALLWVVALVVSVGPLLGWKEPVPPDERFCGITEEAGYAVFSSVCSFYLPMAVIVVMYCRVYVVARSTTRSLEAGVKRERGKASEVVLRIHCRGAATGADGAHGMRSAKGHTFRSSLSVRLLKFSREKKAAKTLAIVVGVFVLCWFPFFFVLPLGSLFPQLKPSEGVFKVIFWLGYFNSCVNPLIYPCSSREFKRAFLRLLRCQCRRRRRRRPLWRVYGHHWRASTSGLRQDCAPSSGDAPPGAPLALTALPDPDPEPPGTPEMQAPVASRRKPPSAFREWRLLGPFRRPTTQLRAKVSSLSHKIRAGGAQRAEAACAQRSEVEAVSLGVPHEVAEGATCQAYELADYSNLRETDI
Counter-ions that a name gives are not always drawn.
Endpoint name: IC50 (nM)
Supply the numeric figure in nM, leaving out any unit text.

| Compound | Reported value |
| --- | --- |
| O=C(NCc1ccccc1)c1ccc(CCNCCC(=O)N(CCNCCc2ccc(O)c3[nH]c(=O)sc23)C2CCCCCC2)cc1 [Example 100, bis-trifluoroacetic acid salt] | 251 |
| C[C@H](CNCCC(=O)N(CCNCCc1ccc(O)c2[nH]c(=O)sc12)C1CCCC1)c1ccccc1 [Example 31, bis-trifluoroacetic acid salt] | 200 |

# input For the compound C[C@H](CNCCC(=O)N(CCNCCc1ccc(O)c2[nH]c(=O)sc12)CC(C)(C)C)c1ccccc1 [Example 11, bis-trifluoroacetic acid salt] , give its reported IC50.
# output 501

====

target: Adrenergic β2 (Homo sapiens, UniProt P07550); construct: Adherent H292 cells were removed from tissue culture flasks; endogenous in cells; host or cells: H292 cells; assay: Adrenergic β2 mediated cAMP production in H292 cells; format: cell-based; conditions: H292 cells, cAMP by AlphaScreen, 60 minutes at room temperature, rolipram 300 μM; read-out: β2 pEC50 (converted)
Sequence (P07550 whole entry): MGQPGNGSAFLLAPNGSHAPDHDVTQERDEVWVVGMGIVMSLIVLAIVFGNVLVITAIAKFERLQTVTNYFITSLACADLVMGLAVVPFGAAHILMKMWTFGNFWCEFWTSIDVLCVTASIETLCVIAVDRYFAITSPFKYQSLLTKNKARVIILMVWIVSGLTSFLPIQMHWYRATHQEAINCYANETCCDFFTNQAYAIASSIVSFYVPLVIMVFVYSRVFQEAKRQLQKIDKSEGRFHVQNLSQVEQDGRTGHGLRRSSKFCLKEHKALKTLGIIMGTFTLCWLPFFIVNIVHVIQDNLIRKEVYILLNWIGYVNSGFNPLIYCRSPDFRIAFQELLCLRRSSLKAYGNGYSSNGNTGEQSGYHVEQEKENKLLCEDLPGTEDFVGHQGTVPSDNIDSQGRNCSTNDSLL
Counter-ions that a name gives are not always drawn.
Reported EC50 by item:
Supply the numeric figure in nM, leaving out any unit text.

See these solved cases before continuing.
| Compound | EC50 (nM) |
| --- | --- |
| O=C(CCNCCc1ccc(Cl)cc1)N(CCNCCc1ccc(O)c2[nH]c(=O)sc12)C1CCCCC1 [Example 13, bis-trifluoroacetic acid salt] | 5.01 |
| O=C(CCNCCc1ccc(Cl)cc1)N(CCNCCc1ccc(O)c2[nH]c(=O)sc12)C1CCOCC1 [Example 26, bis-trifluoroacetic acid salt] | 7.94 |

// switching to the query compound
# input Enter recorded EC50 with Adrenergic β2 (Homo sapiens, UniProt P07550) for O=C(CCNCCc1nc2ccccc2[nH]1)N(CCNCCc1ccc(O)c2[nH]c(=O)sc12)C1CCCCC1 [Example 77, tris-trifluoroacetic acid salt] here.
# output 158

====

molecular target: Adrenergic β2 (Homo sapiens, UniProt P07550); construct: Adherent H292 cells were removed from tissue culture flasks; endogenous in cells; host or cells: H292 cells; assay: Adrenergic β2 mediated cAMP production in H292 cells; assay type: cell-based; conditions: Intrinsic Activity as a fraction relative to the maximum activity determined for formoterol
Where a name gives a salt, the structure may show the parent alone.
Endpoint name: β2 Int Act
Please give only the number in your answer, with no unit.

See these solved cases before continuing.
| Molecule | β2 Int Act |
| --- | --- |
| CC(C)(CN(CCNCCc1ccc(O)c2[nH]c(=O)sc12)C(=O)CCNCCc1ccccc1)c1ccccc1 [Example 45, bis-trifluoroacetic acid salt] | 0.55 |
| O=C(CCNCCc1cccc(Cl)c1)N(CCNCCc1ccc(O)c2[nH]c(=O)sc12)C1CCCC1 [Example 30, bis-trifluoroacetic acid salt] | 0.96 |
| O=C(CCNCCc1cccc(O)c1)N(CCNCCc1ccc(O)c2[nH]c(=O)sc12)C1CCCCCC1 [Example 37, bis-trifluoroacetic acid salt] | 0.91 |
| CC1(C)CCC(N(CCNCCc2ccc(O)c3[nH]c(=O)sc23)C(=O)CCNCCc2cccc(O)c2)CC1 [Example 91, bis-trifluoroacetic acid salt] | 0.75 |
| O=C(CCNCCc1ccccc1)N(CCNCCc1ccc(O)c2[nH]c(=O)sc12)C1CCC(F)(F)CC1 [Example 4, bis-trifluoroacetic acid salt] | 0.79 |

# input For the molecule CC(C)(C)CN(CCNCCc1ccc(O)c2[nH]c(=O)sc12)C(=O)CCNCCc1cccc(Cl)c1 [Example 7, bis-trifluoroacetic acid salt] , give its reported β2 Int Act.
# output 0.68

# input For the molecule O=C(CCNCCC(F)(F)F)N(CCNCCc1ccc(O)c2[nH]c(=O)sc12)C1CCCCC1 [Example 80, bis-trifluoroacetic acid salt] , give its reported β2 Int Act.
# output 0.86

# input For the molecule O=C(CCNCCc1cccc(OC(F)F)c1)N(CCNCCc1ccc(O)c2[nH]c(=O)sc12)C1CCCCCC1 [Example 54, bis-trifluoroacetic acid salt] , give its reported β2 Int Act.
# output 0.69

# input For the molecule O=C(CCNCCc1cc(F)ccc1F)N(CCNCCc1ccc(O)c2[nH]c(=O)sc12)C1CCCCCC1 [Example 83, bis-trifluoroacetic acid salt] , give its reported β2 Int Act.
# output 0.71

# input For the molecule O=C(CCNCCc1ccc(Cl)c(Cl)c1)N(CCNCCc1ccc(O)c2[nH]c(=O)sc12)C1CCOCC1 [Example 24, bis-trifluoroacetic acid salt] , give its reported β2 Int Act.
# output 0.77

# input For the molecule O=C(CCNCCc1cccc(Cl)c1)N(CCNCCc1ccc(O)c2[nH]c(=O)sc12)C1CCCCCC1 [Example 50, bis-trifluoroacetic acid salt] , give its reported β2 Int Act.
# output 0.91

# input For the molecule O=C(NCc1ccccc1)c1ccc(CCNCCC(=O)N(CCNCCc2ccc(O)c3[nH]c(=O)sc23)C2CCCCCC2)cc1 [Example 100, bis-trifluoroacetic acid salt] , give its reported β2 Int Act.
# output 0.81

# input For the molecule CC(C)(CO)CN(CCNCCc1ccc(O)c2[nH]c(=O)sc12)C(=O)CCNCCc1ccc(Cl)cc1 [Example 40, diacetic acid salt] , give its reported β2 Int Act.
# output 0.64

# input For the molecule COc1ccc(CCNCCC(=O)N(CCNCCc2ccc(O)c3[nH]c(=O)sc23)C2CCCCC2)cc1 [Example 68, bis-trifluoroacetic acid salt] , give its reported β2 Int Act.
# output 0.68

# input For the molecule O=C(CCNCCc1ccc(Cl)s1)N(CCNCCc1ccc(O)c2[nH]c(=O)sc12)C1CCCCC1 [Example 72, bis-trifluoroacetic acid salt] , give its reported β2 Int Act.
# output 0.89
